The origin of these recorded values is paper PMC9871955.

- assay system: SARS-CoV-2 PL^pro (Severe acute respiratory syndrome coronavirus 2)
- experiment description: SARS-CoV-2 PL^pro enzymatic inhibition assay (substrate Z-RLRGG-AMC)
- Format: biochemical
- assay setup: Table S6; S/KM = 4; read-out: IC50 (μM) at S/KM 4
Documented IC50 across a set of compounds
Write down the value, and be sure its unit follows.

Here is how some compounds turned out for IC50.
>>> endpoint_value("O=c1sc2ccccc2n1Cc1n[nH]c(=S)n1-c1ccccc1")
"202 µM"
>>> endpoint_value("CC(C(=O)NCc1ccco1)n1c(Cc2c(Cl)cccc2Cl)nc2ccccc21 (stereo not drawn)")
"2.7 µM"
>>> endpoint_value("O=C(COc1ccc(Cl)cc1)NCc1n[nH]c(=S)n1-c1ccc(Br)cc1")
"91.6 µM"
>>> endpoint_value("O=C(NCc1n[nH]c(=S)n1-c1ccc(Br)cc1)c1ccc(Cl)cc1Cl")
"133 µM"
>>> endpoint_value("COc1ccc(-n2c(S)nnc2CNC(=O)c2cc(OC)c(OC)c(OC)c2)cc1")
"18.6 µM"

We now examine a further compound.
q: Quick check: IC50 of CCOc1cc(C(=O)NCc2n[nH]c(=S)n2-c2ccc(Br)cc2)cc(OCC)c1OCC ?
a: 18.3 µM

----------
- assay system: SARS-CoV-2 PL^pro (Severe acute respiratory syndrome coronavirus 2, UniProt P0DTD1)
- experiment description: SARS-CoV-2 PL^pro enzymatic inhibition assay (substrate Z-RLRGG-AMC)
- Format: biochemical
- assay setup: Table S6; S/KM = 2; read-out: IC50 (μM) at S/KM 2
Documented IC50 across a set of compounds

Here is how some compounds turned out for IC50.
>>> endpoint_value("COc1ccc(-n2c(CNC(=O)COc3ccc(Cl)cc3Cl)n[nH]c2=S)cc1")
"12.4 µM"
>>> endpoint_value("COc1ccc(-n2c(S)nnc2CNC(=O)c2cc(OC)c(OC)c(OC)c2)cc1")
"10.7 µM"
>>> endpoint_value("O=C(NCc1n[nH]c(=S)n1-c1ccc(Br)cc1)c1ccc(Cl)cc1Cl")
"200 µM"

We now examine a further compound.
q: Quick check: IC50 of O=C(COc1ccc(Cl)cc1)NCc1n[nH]c(=S)n1-c1ccc(Br)cc1 ?
a: 78.5 µM
